Assignment: determine reported TGI for the given compounds.
- System: NCI-H522 lung
- EXPERIMENTAL_DETAILS: NCI tumour cell line growth inhibition, 48 h

Q) Identify the reported TGI for the following entry. O=CC12C3CCC1C2C(=O)C3 (centres undefined)
A) > 100 µM

Q) Identify the reported TGI for the following entry. Cn1c(=O)c2nc(-c3ccc(Cl)cc3)oc2n(C)c1=O
A) > 100 µM

Q) Identify the reported TGI for the following entry. CN(C)C(=O)OC(Cn1cncn1)(Cn1cncn1)c1ccc(Cl)cc1Cl
A) > 100 µM

Q) Identify the reported TGI for the following entry. O=C(O)Cc1ccc2[nH]c(O)c(C3=Nc4ccccc4C3=O)c2c1
A) > 100 µM

Q) Identify the reported TGI for the following entry. O=C(N/N=C1/C(=O)c2c3ccccc3cc3cccc1c23)c1ccccc1
A) > 100 µM

Q) Identify the reported TGI for the following entry. CCOC(=N)CC(=O)c1ccccc1
A) > 100 µM

Q) Identify the reported TGI for the following entry. Cc1ccc(S(=O)(=O)NNC(=O)c2cc(C)c(C)cc2N)cc1
A) > 100 µM

Q) Identify the reported TGI for the following entry. COc1ccc2c(c1)CC[C@H](O)/C2=C/c1cc(OC)c(OC)c(OC)c1
A) 6.16 µM

Q) Identify the reported TGI for the following entry. COc1cccc(NC(=O)c2sc3nc4c(cc3c2N)C(=O)CCC4)c1
A) 2.41 µM

Q) Identify the reported TGI for the following entry. Nc1nc(N)c2cc(NCc3ccc(Cl)c(Cl)c3)ccc2n1
A) 2.77 µM

Q) Identify the reported TGI for the following entry. Cc1ccc(NC(=O)CSc2nc(=O)[nH]c3nc[nH]c23)cc1
A) > 100 µM

Q) Identify the reported TGI for the following entry. C=C1C(=O)O[C@@H]2C=C(C)C3=CC(=O)[C@](C)(C[C@H](OC(=O)/C(C)=C\C)[C@@H]12)O3
A) 0.394 µM

Q) Identify the reported TGI for the following entry. C=C1C(=O)O[C@@H]2C[C@]3(C)CC[C@]4(C)[C@H](CC[C@@H]5[C@@]6(C)CCC(=O)C(C)(C)[C@@H]6CC[C@]54C)[C@H]3[C@H]12
A) 23.2 µM

Q) Identify the reported TGI for the following entry. COC(=O)C1[C@H](c2cc(OC)c(OC)c(OC)c2)OC(=O)C1(C(=O)OC)C(=O)c1ccc2c(c1)OCO2 (some centres undefined)
A) > 100 µM
